# TGT: Chromobox protein homolog 1 (Homo sapiens)
# PROTOCOL_DESCRIPTION: HTS for Inhibitors of HP1-beta Chromodomain Interactions with Methylated Histone Tails; also: nearly all actives have a fitted effect of over 70% in size
# REPORTED_CONDITIONS: AlphaScreen HP1-beta / biotin-H3K9me3 peptide binding; series mostly up to 114 µM
Screen size: about 390,000 compounds; about 2,200 (0.56%) were called active. Inconclusive results (about 3%) are left out. Calls follow the shape of the dose curve; as a rule, active = well fitted inhibition curve with a large enough effect; inconclusive = small, poorly fitted or top-dose-only effect; inactive = no such curve, though single readings can be large or run the other way. The full list was thinned out, with actives kept by preference.
Outcomes: active, inactive

COMPOUND	LABEL_VALUE
COc1ccc(-c2onc(C)c2C)cc1S(=O)(=O)NCCc1ccccc1	inactive
Cc1cc(C=O)c(C)n1-c1ccc(NC2CCCCC2)c([N+](=O)[O-])c1	active
CCOc1ccc(NC(=O)c2ncoc2-c2ccco2)cc1	inactive
COc1ccc(NC(=O)CN(C)C(=O)c2ccc(NC3CC3)c([N+](=O)[O-])c2)cc1	inactive
COc1cccc(-c2nc(CS(=O)(=O)CC(=O)N3CCN(c4cc(C)ccc4C)CC3)c(C)o2)c1	inactive
Cc1cccc(N2CCN(C(=O)Cn3ncc4c5ccccc5n(C)c4c3=O)CC2C)c1 (configuration not stated)	inactive
Oc1ccc(Cl)cc1C1C=C(c2ccc3c(c2)OCO3)NC(c2c(F)cccc2Cl)N1 (configuration not stated)	inactive
